- system_under_test: Lysosomal protective protein (Homo sapiens, UniProt P10619)
- assay_text: Inhibition of human recombinant Myc-His10-tagged cathepsin A expressed in baculovirus infected Sf9 cells using BodipyFL labeled bradykinin as substrate incubated for 15 mins prior to substrate addition measured after 15 mins by fluorimetric analysis
measurement_name: IC50 (nM)
Quick note: give the figure in nM, leave out the unit.

Before answering, review these 3 worked examples.
- compound: "Cc1cccc([C@H](CC(=O)O)NC(=O)c2cc(=O)n(-c3ccccc3F)[nH]2)c1"
  system_under_test: "Lysosomal protective protein (Homo sapiens, UniProt P10619)"
  IC50 / nM: 252
- compound: "COc1c(Cl)c(C(=O)N[C@@H](CC(=O)O)c2ccccc2C)nn1-c1ccccc1F"
  system_under_test: "Lysosomal protective protein (Homo sapiens, UniProt P10619)"
  IC50 / nM: 110
- compound: "O=C(O)CC(NC(=O)c1cc(=O)n(-c2ccccc2)[nH]1)c1cccc(Cl)c1Cl (racemic)"
  system_under_test: "Lysosomal protective protein (Homo sapiens, UniProt P10619)"
  IC50 / nM: 100

Now let's try a different one.
Given Cc1ccccc1[C@H](CC(=O)O)NC(=O)c1cc(OCC2CC2)n(-c2ccccc2F)n1 , state its recorded IC50.
15

###

- system_under_test: Lysosomal protective protein (Homo sapiens, UniProt P10619)
- Sequence (P10619 whole entry): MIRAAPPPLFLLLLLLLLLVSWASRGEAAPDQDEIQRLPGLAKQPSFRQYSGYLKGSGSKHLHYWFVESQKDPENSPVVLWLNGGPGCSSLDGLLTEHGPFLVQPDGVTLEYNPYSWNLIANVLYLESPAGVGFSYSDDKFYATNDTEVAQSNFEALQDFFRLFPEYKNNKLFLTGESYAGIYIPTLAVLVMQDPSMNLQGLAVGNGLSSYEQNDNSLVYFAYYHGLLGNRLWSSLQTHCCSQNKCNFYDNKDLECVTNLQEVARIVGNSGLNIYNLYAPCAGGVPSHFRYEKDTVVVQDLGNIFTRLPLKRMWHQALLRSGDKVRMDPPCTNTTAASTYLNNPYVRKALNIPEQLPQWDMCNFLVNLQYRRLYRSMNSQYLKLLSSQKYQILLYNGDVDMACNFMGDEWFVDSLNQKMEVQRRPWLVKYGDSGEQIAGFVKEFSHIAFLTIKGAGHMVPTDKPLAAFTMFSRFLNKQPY
- assay_text: Inhibition of human recombinant Myc-His10-tagged cathepsin A expressed in baculovirus infected Sf9 cells using BodipyFL labeled bradykinin as substrate incubated for 15 mins prior to substrate addition measured after 15 mins by fluorimetric analysis
measurement_name: IC50 (nM)
All answers are understood in nM, so give the number only.

- compound: "O=C(O)CC(NC(=O)c1cc(=O)n(-c2ccc(F)cc2F)[nH]1)c1cccc(Cl)c1Cl (racemic)"
  measurement_name: "IC50"
  readout_unit: "nM"
  experimental_result: 120

May I ask what IC50 has been recorded for Cc1ccccc1[C@H](CC(=O)O)NC(=O)c1cc(=O)n(-c2cccc(Cl)c2)[nH]1 ?
102

Next record, please: Cc1ccccc1[C@H](CC(=O)O)NC(=O)c1nn(-c2ccccc2)cc1O
110
